protocol.notes: solvent given as SMILES
applied.conditions: in ClCCl
Parameter threshold = 400 nm. Response is t when absorption maximum meets or exceeds it, else f.

Prompt: Could you tell me if the measured absorption maximum of `c1ccc(N(c2ccccc2)c2ccc(-c3ncnc4ccccc34)cc2)cc1` reaches 400 nm or more?
Response: f

Prompt: Could you tell me if the measured absorption maximum of `N#Cc1ccc(-c2cc3c(ccc4sccc43)s2)cc1` reaches 400 nm or more?
Response: f

Prompt: Could you tell me if the measured absorption maximum of `COc1ccc(C2=Cc3ccccc3[Si]2(c2ccccc2)c2ccccc2)cc1` reaches 400 nm or more?
Response: f

Prompt: Could you tell me if the measured absorption maximum of `Brc1ccc(-c2nc(-c3ccc(C#Cc4ccc(-n5c6ccccc6c6ccccc65)cc4)cc3)nc(-c3ccc(C#Cc4ccc(-n5c6ccccc6c6ccccc65)cc4)cc3)n2)cc1` reaches 400 nm or more?
Response: f

Prompt: Could you tell me if the measured absorption maximum of `COc1ccc(-c2cnc(-c3cccnc3)o2)cc1OC` reaches 400 nm or more?
Response: f

Prompt: Could you tell me if the measured absorption maximum of `CCN(CC)c1ccc2c(c1)oc(=O)c1c(=O)oc3cc(C#Cc4ccc(N(C)C)cc4)ccc3c12` reaches 400 nm or more?
Response: t

Prompt: Could you tell me if the measured absorption maximum of `COc1ccccc1-c1c2ccc(=[N+]3CCCCC3)cc-2oc2cc(N3CCCCC3)ccc12` reaches 400 nm or more?
Response: t

Prompt: Could you tell me if the measured absorption maximum of `COc1ccc(C2=[N+]3C(=Nc4c(-c5ccccc5)c(Br)c(-c5ccc(OC)cc5)n4[B-]3(F)F)C(c3ccccc3)=C2Br)cc1` reaches 400 nm or more?
Response: t

Prompt: Could you tell me if the measured absorption maximum of `CC(C)(C)NC(=O)c1ccc(F)c2ccc3c4ccccc4c4ccccc4c3c12` reaches 400 nm or more?
Response: f

Prompt: Could you tell me if the measured absorption maximum of `CCN(CC)c1ccc2c(-c3ccccc3C(=O)O)c3c([o+]c2c1)/C(=C/c1nc(C)n2ccccc12)CCC3` reaches 400 nm or more?
Response: t

Prompt: Could you tell me if the measured absorption maximum of `CCCCN(CCCC)c1ccc2c#cc3cc4c#cc5ccc(N(CCCC)CCCC)cc5c#cc#cc5cc(C(F)(F)F)ccc5c#cc4cc3c#cc3ccc(C(F)(F)F)cc3c#cc#cc2c1` reaches 400 nm or more?
Response: t

Prompt: Could you tell me if the measured absorption maximum of CCC1=C(C)C2=Cc3c4ccccc4c4n3[B-](c3ccncc3)(Oc3ccccc3-4)[N+]2=C1C=Cc1ccc(OC)cc1 (stereo unspecified) reaches 400 nm or more?
Response: t

Prompt: Could you tell me if the measured absorption maximum of `O=Cc1ccc2c(c1)c1ccccc1n2-c1ccc(-c2ccc(-n3c4ccccc4c4cc(C=O)ccc43)cc2)cc1` reaches 400 nm or more?
Response: f

Prompt: Could you tell me if the measured absorption maximum of `COc1cc2c3sc4ccccc4c3c3cncnc3c2c(OC)c1OC` reaches 400 nm or more?
Response: f

Prompt: Could you tell me if the measured absorption maximum of `C[Si]1(C)c2cc(-c3ccccc3)ccc2C=Cc2ccc(-c3ccccc3)cc21` reaches 400 nm or more?
Response: f

Prompt: Could you tell me if the measured absorption maximum of `CCCCCCCCCCCCOc1cc(/C=C/c2ccc3c(c2)C(CC)(CC)c2cc(N4c5ccccc5Sc5ccccc54)ccc2-3)c(OCCCCCCCCCCCC)cc1/C=C/c1ccc2c(c1)C(CC)(CC)c1cc(N3c4ccccc4Sc4ccccc43)ccc1-2` reaches 400 nm or more?
Response: t
